# Assay Target: T1, cyno TfR extracellular domain (analogous construct to human TfR ecd) (cynomolgus monkey, UniProt Q5RDH6 87-760 (Pongo abelii entry))
# T1 construct: also called cynoTfR ecd
# T1 chain: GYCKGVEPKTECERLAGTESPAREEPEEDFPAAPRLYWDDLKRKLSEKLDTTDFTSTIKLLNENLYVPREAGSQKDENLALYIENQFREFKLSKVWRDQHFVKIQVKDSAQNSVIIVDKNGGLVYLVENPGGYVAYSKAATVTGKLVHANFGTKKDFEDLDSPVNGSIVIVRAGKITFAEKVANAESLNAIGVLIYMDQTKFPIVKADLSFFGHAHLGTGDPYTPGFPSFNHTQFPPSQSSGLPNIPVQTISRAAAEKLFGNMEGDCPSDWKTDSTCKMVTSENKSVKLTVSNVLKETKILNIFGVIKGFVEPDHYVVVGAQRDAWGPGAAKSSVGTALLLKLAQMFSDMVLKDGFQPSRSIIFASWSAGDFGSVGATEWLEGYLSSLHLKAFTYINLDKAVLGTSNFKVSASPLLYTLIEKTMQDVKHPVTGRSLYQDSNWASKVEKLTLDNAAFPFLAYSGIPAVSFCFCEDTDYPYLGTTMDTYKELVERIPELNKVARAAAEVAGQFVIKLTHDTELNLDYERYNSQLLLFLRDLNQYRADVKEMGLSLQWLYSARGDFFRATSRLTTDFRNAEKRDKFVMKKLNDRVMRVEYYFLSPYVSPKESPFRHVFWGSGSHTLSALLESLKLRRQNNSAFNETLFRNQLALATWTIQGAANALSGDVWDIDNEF
# Assay Notes: SPR, TfR captured by anti-His, Fab injected;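 further: single cycle kinetics with a Fab dilution series, fitted by a one-to-one Langmuir model or a steady state model, KD taken as koff over kon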
Outcome Measure: kon (M⁻¹ s⁻¹)
Answer with a number only, understood to be in M⁻¹ s⁻¹.

// query Param item = Hu7A4.v12.Fab (Fab, V domains shown, Fab) VH: EVQLVQSGAEVKKPGASVKVSCKGSGYTFTDYAMHWVRQAPGQGLEWMGGISTYFGRTNYNQKFKGRVTMTVDTSISTAYMELSRLRSDDTAVYYCARGLSGNYVMDYWGQGTTVTVSS VL: DIVMTQSPDSLAVSLGERATINCRASESVDSYGNSFMHWYQQKPGQPPKLLIYRASNLESGVPDRFSGSGSRTDFTLTISSLQAEDVAVYYCQQSNEGPPTFGQGTKLEIK ; retrieve measured kon.
// result 1.74e+06

// query Param item = Hu16F6.v4.Fab (Fab, V domains shown, Fab) VH: EVQLVESGPGLVKPSETLSLTCTVSGNSITSEYAWNWIRQPPGKGLEWIGYISYSGTTSYNPSLKSRVTISRDTSKNQLSLKLSSVTAADTAVYYCARYGYGNPATRYFDVWGQGTLVTVSS VL: DIQMTQSPSSLSASVGDRVTITCRASKSISKYLAWYQQKPGKTNKLLLYSGSTLQSGVPSRFSGSGSGTDYTLTISSLQPEDFATYYCQQHNEYPWTFGQGTKVEIK ; retrieve measured kon.
// result 98900

// query Param item = hu7A4.v15.Fab (Fab, V domains shown, Fab) VH: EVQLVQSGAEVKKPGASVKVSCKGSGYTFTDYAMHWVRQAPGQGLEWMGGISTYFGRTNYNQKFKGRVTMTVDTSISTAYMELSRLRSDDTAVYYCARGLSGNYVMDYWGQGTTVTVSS VL: DIVMTQSPDSLAVSLGERATINCRASESVDSYGNSFMHWYQQKPGQPPKLLIYRASNLESGVPDRFSGSGSRTDFTLTISSLQAEDVAVYYCQQSNEAPPTFGQGTKLEIK ; retrieve measured kon.
// result 378000
